Catalogue of TGI values
# Test system: SN12C renal
# experimental.protocol: NCI tumour cell line growth inhibition, 48 h

| compound | TGI |
| --- | --- |
| Cc1nc2c(=O)[nH]ncc2[nH]1 | > 100 µM |
| CC1=CC2C(=O)N(c3ccccc3)C(=O)C2CC1n1[nH]c(=O)n(Cc2ccccc2)c1=O (stereo unspecified) | > 100 µM |
| CC(=O)N1CCC(Nc2ncc3cc(Oc4ccc(F)cc4F)c(=O)n(C)c3n2)CC1 | > 25 µM |
| CC(C)N(CCCNC(=O)Nc1ccc(C(C)(C)C)cc1)C[C@H]1O[C@@H](n2ccc3c(N)ncnc32)[C@H](O)[C@@H]1O | > 100 µM |
| COc1cc(O)c2c(c1)OCC1(Cc3cc(OC)c(OC)cc31)C2=O (stereo unspecified) | > 100 µM |
| Cc1ccc(O)c(C2=CC3=NNC(=O)C3C(c3cccc(Br)c3)C2)c1 (stereo unspecified) | 63.5 µM |

###

Catalogue of TGI values
# System: SNB-19 CNS
# experimental.protocol: NCI tumour cell line growth inhibition, 48 h

| molecule | TGI |
| --- | --- |
| Cc1ccc(C2CC(c3cccc([N+](=O)[O-])c3)=Nc3ccccc3S2)cc1 (centres undefined) | > 100 µM |
| CC(C)(C)OC(=O)NC(CSCc1ccc(C(=O)c2ccccc2)cc1)C(=O)O (centres undefined) | > 100 µM |
| O=C(NC(=S)Nc1ccc2c(c1)Sc1ccccc1O2)c1ccccc1 | > 100 µM |
| O=C1OCCC1(Cc1ccc(Cl)cc1)Cc1ccc(Cl)cc1 | > 100 µM |
| CCCCOC(=O)CC(CC(=O)OCCCC)(OC(C)=O)C(=O)OCCCC | > 200 µM |
| CCN=c1nc2sc3c(c2c(NC(=S)NCC)s1)CCN(N1CCc2c(sc4nc(=NCC)sc(NC(=S)NCC)c24)C1)C3 | > 100 µM |
| CCCN1C/C(=C\c2ccc(O)c(OC)c2)C(=O)/C(=C/c2ccc(O)c(OC)c2)C1 | > 100 µM |
| COC1=CC(=O)c2c(cc(COP(N)(=O)N(CCBr)CCBr)n2C)C1=O (centres undefined) | 8.28 µM |
| OC(CC(CC(O)(C(F)(F)F)C(F)(F)F)=NN=C(CC(O)(C(F)(F)F)C(F)(F)F)CC(O)(C(F)(F)F)C(F)(F)F)(C(F)(F)F)C(F)(F)F | > 10 µM |

###

# System: UACC-257 melanoma
# experimental.protocol: NCI tumour cell line growth inhibition, 48 h
Catalogue of TGI values

| compound | system.under.test | TGI |
| --- | --- | --- |
| COc1ccc(/C=N/N/C(O)=c2/sc(=C(C#N)C#N)n(-c3ccccc3)c2=N)cc1 | UACC-257 melanoma | > 100 µM |
| C/C(=C\COP(=O)(O)OP(=O)(O)O)CCCOCc1ccccc1 | UACC-257 melanoma | > 100 µM |
| C=C1CC2(CCOc3ccc(Cl)cc32)OC1=O (stereo not given) | UACC-257 melanoma | 20.1 µM |
| O=c1oc2ccc(Cl)cc2c2ccccc12 | UACC-257 melanoma | > 100 µM |
| Cc1ccc(O)c(C2=CC3=NNC(=O)C3C(c3cccc(Br)c3)C2)c1 (stereo not given) | UACC-257 melanoma | > 75 µM |
| CC(C)NC(C)C(C)c1ccccc1 (stereo not given) | UACC-257 melanoma | > 100 µM |
| Cc1nc2c(=O)[nH]ncc2[nH]1 | UACC-257 melanoma | > 100 µM |
| O=C(OCC1OC(n2cc(C(F)(F)F)c(=O)[nH]c2=O)CC1OC(=O)c1ccc([N+](=O)[O-])cc1)c1ccc([N+](=O)[O-])cc1 (stereo not given) | UACC-257 melanoma | > 100 µM |
| N#CC(C/C=C/c1ccccc1)NNC(=O)c1c(Cl)c(Cl)c(Cl)c(Cl)c1-c1nc2ccc(C(=O)c3ccccc3)cc2[nH]1 (stereo not given) | UACC-257 melanoma | > 100 µM |
| CCOP(=O)(O)CC1OC(CO)C(O)C1O (stereo not given) | UACC-257 melanoma | > 100 µM |
